Target: HLA-B*51:01
Assay: IEDB peptide-MHC binding, purified MHC/competitive/fluorescence; bounds were set here for any values at or beyond the usual limits of such assays
Settings: source organism: Homo sapiens
readout kind: IC50
The number alone won't do; follow it with the unit.

Quick one: IC50 for MASSPTSI ?
1520 nM

* * *

Biological target: HLA-A*02:01
Test: IEDB peptide-MHC binding, purified MHC/direct/fluorescence; filed as Kd, often an IC50 or EC50 that approximates it; bounds were set here for any values at or beyond the usual limits of such assays
Conditions: source organism: Bacillus cereus H3081.97
pKd: −log10 of the molar value.
readout kind: pKd

Short answer please: pKd, HLA-A*02:01, entry YSTVRDLFL
≤ 4.70

* * *

Biological target: HLA-A*02:17
Assay: IEDB peptide-MHC binding, purified MHC/competitive/radioactivity; filed as Kd, often an IC50 or EC50 that approximates it; bounds were set here for any values at or beyond the usual limits of such assays
Conditions: source organism: Dengue virus 1 Singapore/S275/1990
readout kind: pKd
Lab note: report pKd as minus log10 of the concentration in molar units, number only.

Need pKd of LLMRTTWAL , thanks.
8.31

* * *

Molecular target: HLA-A*32:01
Assay: IEDB peptide-MHC binding, purified MHC/competitive/radioactivity; filed as Kd, often an IC50 or EC50 that approximates it; bounds were set here for any values at or beyond the usual limits of such assays
Conditions: source organism: Variola virus
readout kind: pKd
// scale note: pKd = -log10(conc_M); give the bare number

Given the sequence LSINSSFYF , what is its reported pKd?
5.53

* * *

Molecular target: HLA-A*31:01
Assay: IEDB peptide-MHC binding, purified MHC/competitive/radioactivity; filed as Kd, often an IC50 or EC50 that approximates it; bounds were set here for any values at or beyond the usual limits of such assays
Conditions: source organism: Dengue virus 3 Martinique/1243/1999
Each record here notes measured log10 of Kd.
Use the decimal logarithm of Kd (nM).

1. KEFKDFAAGR ... 2.61

Pending sequence:
What value of log10 of Kd has been reported for the following sequence? SAKLQWFVER
1.54

* * *

Target: HLA-A*11:01
Assay: IEDB peptide-MHC binding, purified MHC/direct/fluorescence; filed as Kd, often an IC50 or EC50 that approximates it; bounds were set here for any values at or beyond the usual limits of such assays
Details: source organism: Salmonella enterica subsp. enterica serovar Typhi
readout kind: Kd (µM)
Enter your answer as a number in µM; do not include the unit.

Data request, read-out Kd, for AAGLPAIFV
3.86

* * *

Target: HLA-B*46:01
Assay: IEDB peptide-MHC binding, purified MHC/competitive/fluorescence; filed as Kd, often an IC50 or EC50 that approximates it; bounds were set here for any values at or beyond the usual limits of such assays
Settings: source organism: Shigella dysenteriae Sd197
pKd: −log10 of the molar value.
readout kind: pKd

For HLA-B*46:01, provide pKd of IEDDEIIWV please.
≤ 4.70

* * *

Target: HLA-A*01:01
Assay: IEDB peptide-MHC binding, purified MHC/direct/fluorescence; filed as Kd, often an IC50 or EC50 that approximates it; bounds were set here for any values at or beyond the usual limits of such assays
Conditions: source organism: Rickettsia prowazekii
pKd: −log10 of the molar value.
readout kind: pKd

# get_value(readout='pKd', item= VVNYDNSTK )
≤ 4.70

* * *

Target: HLA-A*02:19
Experiment: IEDB peptide-MHC binding, purified MHC/direct/fluorescence; filed as Kd, often an IC50 or EC50 that approximates it; bounds were set here for any values at or beyond the usual limits of such assays
Conditions: source organism: Influenza A virus H3N2
pKd: −log10 of the molar value.
readout kind: pKd

Query (sequence): AVDADDSHF ; field requested: pKd
≤ 4.70

* * *

Items are presented alongside their recorded pKd.
Target: HLA-A*01:01
Experiment: IEDB peptide-MHC binding, purified MHC/competitive/fluorescence; filed as Kd, often an IC50 or EC50 that approximates it; bounds were set here for any values at or beyond the usual limits of such assays
Conditions: source organism: Bacillus anthracis str. A0488
Would you please state pKd, meaning minus log10 of the concentration in mol/L, as a bare number?

1) TLDSEDGLY ... 8.80

Let us examine a further case.
For the sequence shown here, LLDNSMFTY , give the reported pKd.
8.42

* * *

Biological target: HLA-A*02:01
Test: IEDB peptide-MHC binding, purified MHC/competitive/radioactivity; filed as Kd, often an IC50 or EC50 that approximates it; bounds were set here for any values at or beyond the usual limits of such assays
Details: source organism: Dengue virus 1 Singapore/S275/1990
readout kind: pKd
pKd field: float, defined as -log10 of concentration (mol/L).

Any idea what pKd was measured for LLMRTTWAL ?
7.67

* * *

Target: HLA-A*32:01
Experiment: IEDB peptide-MHC binding, purified MHC/competitive/radioactivity; filed as Kd, often an IC50 or EC50 that approximates it; bounds were set here for any values at or beyond the usual limits of such assays
Details: source organism: Mammarenavirus juninense
readout kind: Kd

Give its Kd value. Item: ELGNILSVY
≥ 77.8 µM

* * *

Target: HLA-A*30:01
Assay: IEDB peptide-MHC binding, purified MHC/competitive/radioactivity; filed as Kd, often an IC50 or EC50 that approximates it; bounds were set here for any values at or beyond the usual limits of such assays
Conditions: source organism: Vaccinia virus WR
readout kind: pKd
FYI, pKd means -log10 of a concentration in mol per litre.

A selection of reference data follows.
1. KIKAGPRYV ... 8.16
2. LLKDRNELF ... 6.97
3. KAKWLTPFE ... 6.18
4. MVKNNKIQK ... 7.93
5. KVKKRYPEF ... 6.99
6. TMKERRPIL ... 5.33

Lab note: need pKd with HLA-A*30:01 for entry MTFGDIPLV , please look it up.
6.63

GET /values?readout=pKd&system=HLA-A*30:01&item= YQSLSPPPF
9.30

Find pKd (HLA-A*30:01) for the entry RTKLMSNIK
9.42

* * *

Molecular target: HLA-B*27:05
Assay: IEDB peptide-MHC binding, purified MHC/direct/fluorescence; filed as Kd, often an IC50 or EC50 that approximates it; bounds were set here for any values at or beyond the usual limits of such assays
Conditions: source organism: Rickettsia typhi
pKd: −log10 of the molar value.
readout kind: pKd

Item APILVVSGI has what recorded pKd?
≤ 4.70

* * *

Target: HLA-B*27:03
Experiment: IEDB peptide-MHC binding, purified MHC/competitive/fluorescence; filed as Kd, often an IC50 or EC50 that approximates it; bounds were set here for any values at or beyond the usual limits of such assays
Settings: source organism: Cryptosporidium parvum Iowa II
pKd: −log10 of the molar value.
readout kind: pKd

Query: pKd; subject: VYWENEVSI
≤ 4.70

* * *

Biological target: HLA-A*11:01
Assay: IEDB peptide-MHC binding, purified MHC/direct/fluorescence; filed as Kd, often an IC50 or EC50 that approximates it; bounds were set here for any values at or beyond the usual limits of such assays
Details: source organism: Rickettsia sibirica 246
readout kind: Kd (nM)
Quick reminder: number only, in nM, skip the unit.

Entry under review: SVANIDRIK . Reported Kd?
6

* * *

Target: HLA-A*24:03
Experiment: IEDB peptide-MHC binding, purified MHC/direct/fluorescence; filed as Kd, often an IC50 or EC50 that approximates it; bounds were set here for any values at or beyond the usual limits of such assays
Conditions: source organism: Pasteurella multocida
readout kind: Kd (nM)
The reply should contain only the number, in nM.

Recorded Kd for QYPAFVLFI , please?
1.92

* * *

Target: HLA-A*02:03
Assay: IEDB peptide-MHC binding, purified MHC/competitive/radioactivity; filed as Kd, often an IC50 or EC50 that approximates it; bounds were set here for any values at or beyond the usual limits of such assays
Details: source organism: Mammarenavirus guanaritoense
readout kind: Kd (µM)
Give your result in µM as a bare value.

Which Kd reading was recorded for the sequence YCNYTRFWYI ?
4.34

* * *

Molecular target: HLA-A*02:12
Test: IEDB peptide-MHC binding, purified MHC/competitive/fluorescence; filed as Kd, often an IC50 or EC50 that approximates it; bounds were set here for any values at or beyond the usual limits of such assays
Conditions: source organism: Escherichia coli O139:H28 str. E24377A
readout kind: pKd
When answering, recall that pKd equals minus log10 of the concentration in mol/L, and write that number alone.

Item under review: SIPFGLMSA . Reported pKd?
6.06

* * *

Molecular target: HLA-A*02:12
Test: IEDB peptide-MHC binding, purified MHC/competitive/fluorescence; filed as Kd, often an IC50 or EC50 that approximates it; bounds were set here for any values at or beyond the usual limits of such assays
Conditions: source organism: Human herpesvirus 5 strain Towne
readout kind: Kd (nM)
# output: bare number, implied unit nM

Reported Kd for NLVPMVATV : what is it?
1.55
